These entries and their values trace back to ChEMBL document CHEMBL1961873.

# experimental-target: Death-associated protein kinase 1 (Homo sapiens) (UniProt P53355);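 further: reported figure is the mean inhibition of DAPK1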
# Sequence (P53355 whole entry, looked up): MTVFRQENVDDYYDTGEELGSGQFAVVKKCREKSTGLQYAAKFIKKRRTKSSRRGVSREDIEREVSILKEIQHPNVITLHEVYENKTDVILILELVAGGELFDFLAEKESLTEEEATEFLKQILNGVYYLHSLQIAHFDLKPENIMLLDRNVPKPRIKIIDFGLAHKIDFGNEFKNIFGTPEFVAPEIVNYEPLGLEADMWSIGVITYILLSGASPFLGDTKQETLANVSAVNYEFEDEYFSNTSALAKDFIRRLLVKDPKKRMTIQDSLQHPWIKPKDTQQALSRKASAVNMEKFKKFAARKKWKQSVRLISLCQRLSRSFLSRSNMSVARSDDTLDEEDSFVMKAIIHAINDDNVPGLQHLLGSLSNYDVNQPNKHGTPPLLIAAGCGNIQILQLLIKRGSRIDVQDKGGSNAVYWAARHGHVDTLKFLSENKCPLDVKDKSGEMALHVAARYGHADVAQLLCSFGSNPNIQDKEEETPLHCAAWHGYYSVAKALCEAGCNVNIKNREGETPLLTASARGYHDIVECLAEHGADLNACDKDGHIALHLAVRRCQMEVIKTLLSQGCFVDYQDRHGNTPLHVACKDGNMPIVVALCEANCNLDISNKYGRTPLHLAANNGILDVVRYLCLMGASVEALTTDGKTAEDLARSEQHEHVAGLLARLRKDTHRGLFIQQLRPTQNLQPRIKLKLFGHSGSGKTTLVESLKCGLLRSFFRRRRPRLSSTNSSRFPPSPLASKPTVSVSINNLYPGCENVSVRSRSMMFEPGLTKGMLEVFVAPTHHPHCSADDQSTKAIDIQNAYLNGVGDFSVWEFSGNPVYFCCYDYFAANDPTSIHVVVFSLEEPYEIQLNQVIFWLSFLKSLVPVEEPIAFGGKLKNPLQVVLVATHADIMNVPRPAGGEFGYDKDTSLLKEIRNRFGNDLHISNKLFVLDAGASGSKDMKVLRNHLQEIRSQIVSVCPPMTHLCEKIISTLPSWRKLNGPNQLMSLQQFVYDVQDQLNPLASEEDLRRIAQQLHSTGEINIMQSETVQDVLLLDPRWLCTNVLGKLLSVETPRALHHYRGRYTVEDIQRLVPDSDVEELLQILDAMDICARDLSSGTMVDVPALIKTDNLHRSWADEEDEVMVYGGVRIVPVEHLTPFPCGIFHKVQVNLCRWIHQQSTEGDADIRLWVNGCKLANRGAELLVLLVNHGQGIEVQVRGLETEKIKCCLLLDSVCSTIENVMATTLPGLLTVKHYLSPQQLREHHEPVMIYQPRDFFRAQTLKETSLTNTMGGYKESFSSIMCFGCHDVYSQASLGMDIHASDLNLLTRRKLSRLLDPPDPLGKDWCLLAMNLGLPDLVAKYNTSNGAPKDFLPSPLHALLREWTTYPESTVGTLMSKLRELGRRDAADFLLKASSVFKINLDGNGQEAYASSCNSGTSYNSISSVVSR
# experimental-conditions: at 0.1 µM
observable: inhibition (%)
Write down the numeric answer in % and omit the unit.

Answered examples (5):
compound	experimental-target	observable	number
Cc1nn(C)c2cc(N(C)c3ccnc(Nc4cccc(S(N)(=O)=O)c4)n3)ccc12	Death-associated protein kinase 1 (Homo sapiens) (UniProt P53355)	inhibition	8.62
COc1cc2ncn(-c3cc(O[C@@H](C)c4ccccc4Cl)c(C(N)=O)s3)c2cc1OC	Death-associated protein kinase 1 (Homo sapiens) (UniProt P53355)	inhibition	13.5
CC1=C(C(=O)Nc2ccc3[nH]ncc3c2)C(c2ccc3ccccc3c2)CC(=O)N1 (stereo not given)	Death-associated protein kinase 1 (Homo sapiens) (UniProt P53355)	inhibition	0.55
Fc1cccc(COc2ccc(Nc3ncnc4sc(-c5cccs5)cc34)cc2Cl)c1	Death-associated protein kinase 1 (Homo sapiens) (UniProt P53355)	inhibition	-9.21
Nc1nc(-c2ccc3c(c2)C(=Cc2cc(Br)c(O)c(Br)c2)C(=O)N3)cs1	Death-associated protein kinase 1 (Homo sapiens) (UniProt P53355)	inhibition	0.32

Would you kindly share the measured inhibition for "CCn1c(-c2nonc2N)nc2cncc(C(=O)N3CC[C@H](N)C3)c21" ?
5.74

What do you get for "Nc1ncnc2occ(-c3ccc(NC(=O)Nc4cccc(C(F)(F)F)c4)cc3)c12" ?
8.33

Next compound: "Cc1cccc(-c2n[nH]cc2-c2ccc3ncccc3n2)n1"
0.65

And then "CCc1cccc(NC(=O)Nc2ccc(Oc3ccc4nc(NC(=O)OC)[nH]c4c3)cc2)c1" , what is it?
-5.09

Record: "CS(=O)(=O)CCNCc1ccc(-c2ccc3ncnc(Nc4ccc(OCc5ccccc5)c(Cl)c4)c3c2)o1"
-9.06

Queued: "COc1cc2c(cc1Nc1nc(N3CCc4ccccc43)c3cc[nH]c3n1)N(C(=O)CN(C)C)CC2"
2.95

Quick one: "Cc1ccc(C(=O)NC2CCCCC2)cc1-c1ccc(C(=O)NCC2CC2)cc1"
3.76

Now consider "Cc1nnc(-c2ccc(C)c(-c3ccc(C(=O)Nc4cccc(C#N)c4)cc3)c2)o1" and answer again.
3.42

Moving on to the next compound: "COc1ccc(-c2coc3ncnc(N)c23)cc1"
10.8

---

# experimental-target: Phosphatidylinositol 4,5-bisphosphate 3-kinase catalytic subunit alpha isoform (Homo sapiens) (UniProt P42336);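 further: values are mean percent inhibition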
# Sequence (P42336 whole entry, canonical isoform): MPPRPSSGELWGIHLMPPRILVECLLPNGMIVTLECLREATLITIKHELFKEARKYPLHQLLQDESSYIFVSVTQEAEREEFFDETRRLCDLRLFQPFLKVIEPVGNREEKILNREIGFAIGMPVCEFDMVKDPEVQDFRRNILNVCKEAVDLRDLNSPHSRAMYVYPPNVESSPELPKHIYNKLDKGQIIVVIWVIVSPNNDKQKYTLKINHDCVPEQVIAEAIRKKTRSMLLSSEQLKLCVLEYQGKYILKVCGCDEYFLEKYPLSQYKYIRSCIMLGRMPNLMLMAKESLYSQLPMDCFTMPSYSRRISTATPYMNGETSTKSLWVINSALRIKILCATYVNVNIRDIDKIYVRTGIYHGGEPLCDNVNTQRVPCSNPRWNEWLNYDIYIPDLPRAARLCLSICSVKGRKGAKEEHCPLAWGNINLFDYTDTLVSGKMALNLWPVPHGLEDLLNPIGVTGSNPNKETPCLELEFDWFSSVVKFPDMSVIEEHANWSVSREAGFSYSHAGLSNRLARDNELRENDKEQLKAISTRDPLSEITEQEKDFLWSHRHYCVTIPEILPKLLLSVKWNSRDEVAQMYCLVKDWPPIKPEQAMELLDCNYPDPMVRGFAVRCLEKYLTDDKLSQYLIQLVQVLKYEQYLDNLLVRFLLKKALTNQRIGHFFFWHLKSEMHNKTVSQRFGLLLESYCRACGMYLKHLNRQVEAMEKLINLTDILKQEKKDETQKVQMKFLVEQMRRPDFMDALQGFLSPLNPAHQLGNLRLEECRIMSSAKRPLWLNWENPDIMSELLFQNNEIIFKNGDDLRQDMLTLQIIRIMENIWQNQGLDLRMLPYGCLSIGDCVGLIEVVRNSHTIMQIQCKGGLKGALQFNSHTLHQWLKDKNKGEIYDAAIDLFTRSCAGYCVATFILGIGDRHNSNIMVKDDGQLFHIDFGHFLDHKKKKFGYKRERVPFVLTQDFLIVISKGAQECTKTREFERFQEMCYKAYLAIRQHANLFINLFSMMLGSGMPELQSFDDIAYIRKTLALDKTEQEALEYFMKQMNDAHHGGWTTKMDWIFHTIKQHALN
# experimental-conditions: at 1 µM
inhibition values, listed per item
Your answer should be a plain number; it is taken to be in %.

compound	number
c1cnn2ncc(-c3ccnc(Nc4ccc5c(c4)OCCO5)n3)c2c1	30.2
O=C1NC(=O)C(c2ccccc2Cl)=C1Nc1cccc(O)c1	1.86
CC1=C(C(=O)Nc2ccc3[nH]ncc3c2)C(c2ccc(Cl)c(Cl)c2)CC(=O)N1 (stereo unspecified)	-0.79

Which inhibition reading was recorded for the compound "COc1ccc(-c2ccncc2)cc1C(N)=O" ?
4.31

Now the compound "Cc1cccc(-c2n[nH]cc2-c2ccc3ncccc3n2)n1"
1.78

---

Each entry below carries its recorded inhibition.
# experimental-target: Tyrosine-protein kinase SYK (Homo sapiens);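 further: reported percentages are mean inhibition values for SYK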
# experimental-conditions: at 0.1 µM
Numbers only here, please. The scale is %.

These solved cases illustrate the format of a correct answer.
compound	unit-tag	inhibition
CN1CCC(C(=O)Nc2n[nH]c3nnc(-c4ccccc4)cc23)CC1	%	-4.25
CCn1c(-c2nonc2N)nc2cnc(Oc3cccc(NC(=O)c4ccc(OCCN5CCOCC5)cc4)c3)cc21	%	-4.21
CS(=O)(=O)CCNCc1ccc(-c2ccc3ncnc(Nc4ccc(OCc5ccccc5)c(Cl)c4)c3c2)o1	%	1.87
Fc1cccc(COc2ccc(Nc3ncnc4sc(-c5cccs5)cc34)cc2Cl)c1	%	0.32

Which inhibition is reported with Tyrosine-protein kinase SYK (Homo sapiens) for this entry: "NS(=O)(=O)c1ccc(N/N=C2\C(=O)Nc3ccc(C(=O)NCCc4c[nH]cn4)cc32)cc1" ?
-4.27

Another: "COC(=O)Nc1nc2cc(Oc3ccc(NC(=O)Nc4cccc(C(=O)O)c4)cc3)ccc2[nH]1"
5.41

Continue with "O=C1Nc2ccc(C(=O)c3ccco3)cc2C1=Cc1cc(Cl)c(O)c(Cl)c1"
-6.13

"O=C(Nc1n[nH]c2nc(-c3ccco3)c(Br)cc12)C1CC1" , same question.
0.12

Can you handle "Nc1ncnc2occ(-c3ccc(NC(=O)Nc4cc(C(F)(F)F)cc(C(F)(F)F)c4)cc3)c12" next?
-5.69

Can you handle "CC(C)=Cc1cccc2c1/C(=N/Nc1ccc(S(N)(=O)=O)cc1)C(=O)N2" next?
2.78

Cool, now "Fc1cccc(COc2ccc(Nc3ncnc4cc(-c5ccc[nH]5)sc34)cc2Cl)c1"
1.5

Next entry: "N#Cc1c(NC(=O)c2cccc3ccccc23)sc2c1CCCC2"
-4.41

For CC1=C(C(=O)Nc2ccc3[nH]ncc3c2)C(c2ccc(Cl)c(Cl)c2)CC(=O)N1 (stereo not given) then?
-3.45

Same question, "COc1cc2ncn(-c3cc(OCc4ccccc4Cl)c(C(N)=O)s3)c2cc1OC" this time
-2.2

Here is the next compound: "O=C1NC(=O)C(N2CCc3ccccc32)=C1c1ccc(Cl)cc1"
-4.42

Try this compound next: "CCn1c(-c2nonc2N)nc2c(C#CC(C)(C)O)nc(CN3CCCC3)cc21"
6.45
